EXPERIMENTAL TARGET: T1, biotinylated goat anti-human kappa light chain
T1 construct: Positive control of the ELISA
ASSAY TEXT: ELISA; positive control; also: test concentration or dose not given here
OBSERVATION TYPE: optical density (OD)
// return numeric value only (unit: OD, not printed)

Observe how each entry below is paired with its result.
1. 369_A10 (antibody, V domains shown, VH/VL only) VH: EVQLLESGGGLVQPGGSLRLSCAASGFTFDSYSMNWVRQAPGKGLEWVAGINYNSGYTGYADSVKGRFTISRDNSKNTLYLQMNSLRAEDTAVYYCARSATWHDTHLDYWGQGTLVTVSS VL: DIQMTQSPSSLSASVGDRVTITCRASQSILSYLNWYQQKPGKAPKLLIYAATSRASGVPSRFSGSGSGTDFTLTISSLQPEDFATYYCQQSYELPLTFGGGTKVEIK = 3.41
2. 375_E01 (antibody, V domains shown, VH/VL only) VH: EVQLLESGGGLVQPGGSLRLSCAASGFTFSSYSMNWVRQAPGKGLEWVSGINYNSGYKSYADSVKGRFTISRDNSKNTLYLQMNSLRAEDTAVYYCARSANWHDTALDYWGQGTLVTVSS VL: DIQMTQSPSSLSASVGDRVTITCRASQSILTYLNWYQQKPGKAPKLVIYAATSRASGVPSRFSGSGSGTDFTLTISSLQPEDFATYYCQQSDDSPLTFGGGTKVEIK = 3.11

Now let's try a different one.
Prompt line: Provide one value: measured optical density of 369_G07 (antibody, V domains shown, VH/VL only) VH: EVQLLESGGGLVQPGGSLRLSCAASGFTFSSYSMNWVRQAPGKGLEWVAGINYNGGYTSYADSVKGRFTISRDNSKNTLYLQMNSLRAEDTAVYYCARSATWHDTHLDYWGQGTLVTVSS VL: DIQMTQSPSSLSASVGDRVTITCRASQSILTYVNWYQQKPGKAPKLVIYAATSRASGVPSRFSGSGSGTDFTLTISSLQPEDFATYYCQQSYDNPLTFGGGTKVEIK
Response line: 2.98

Entry source: patent US20210380703A1
